Origin of the recorded values: PubChem BioAssay AID1159580

# Assay notes: chemical genetic growth profiling, strain panel (AID 1159580);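 further: tested at 20 µM; growth read once vehicle control cultures reached saturation at 30 °C; 1 = growth at the plate median or of vehicle wells; lower values mean less growth of the strain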
# Condition details: S. cerevisiae deletion strains, growth OD, locus YNR030W, strain Alg12, stronger effect = lower value
Hit rate of the full screen: of about 5,500 compounds, about 2,000 (36%) were called active. About 18% were inconclusive and are not listed. The list shows a part of the results.
Here the recorded normalized growth is given for each entry.

Examples with answers:
{"columns": ["Compound", "normalized growth"],
 "data": [
  ["Cc1c(S(=O)(=O)c2ccc(Cl)cc2)csc1S(=O)(=O)N/N=C\\c1c(Cl)cccc1Cl", "1.01 (inactive)"],
  ["O=C(O)CCOc1ccc(Cl)cc1", "1 (inactive)"],
  ["O=C(O)CC(CC(=O)Nc1ccc(I)cc1F)c1ccc(C(F)(F)F)cc1 (centres undefined)", "0.927 (inactive)"]
]}

Then this compound:
Can you look up the measured normalized growth of CCC(=O)c1c(C)c(C)c(C)c(C)c1C for me?
0.954 (inactive)

###

# Assay notes: chemical genetic growth profiling, strain panel (AID 1159580);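 further: tested at 20 µM; growth read once vehicle control cultures reached saturation at 30 °C; 1 = growth at the plate median or of vehicle wells; lower values mean less growth of the strain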
# Condition details: S. cerevisiae deletion strains, growth OD, locus YLR330W, strain CHS5, stronger effect = lower value
The campaign covered roughly 5,500 compounds. About 2,000 (36%) were called active. Not shown: some 18% with an inconclusive outcome. The list shows a part of the results.
Measurement name: normalized growth
Could you keep your reply to the number by itself?

Examples with answers:
{"columns": ["Compound", "normalized growth"],
 "data": [
  ["CC(=O)O[C@H]1CC[C@]2(C)C3C(=O)[C@@H](OC(C)=O)[C@@]4(C)C(C[C@@H]5O[C@]6(CCC(C)CO6)[C@@H](C)[C@@H]54)C3CC[C@H]2C1 (stereo partly specified)", 0.996],
  ["COC(=O)c1c(C)cc(OC(=O)c2c(C)c(Cl)c(O)c(C=O)c2O)c(C)c1O", 0.993],
  ["CCCC(C(=O)OCCN(CC)CC)(c1ccccc1)c1ccccc1", 1.01],
  ["Cc1nc2ccccn2c(=O)c1CCN1CCC(C(=O)c2ccc(F)cc2)CC1", 1.02],
  ["COc1ccc(C(=O)N2CCCC2=O)cc1", 0.986]
]}

Can you look up the measured normalized growth of CC12CC3CC(C)(C1)CC(N)(C3)C2 for me?
1

Can you look up the measured normalized growth of O=C(Nc1ccccc1)c1ccccc1O for me?
0.983

Can you look up the measured normalized growth of O=C(O)Cc1cc(I)c(Oc2cc(I)c(O)c(I)c2)c(I)c1 for me?
0.967

Can you look up the measured normalized growth of Cc1cccc(Nc2ccncc2S(=O)(=O)NC(=O)NC(C)C)c1 for me?
1.01

Can you look up the measured normalized growth of COc1ccc(C(=O)CC(=O)c2ccc(C(C)(C)C)cc2)cc1 for me?
1

Can you look up the measured normalized growth of CN1CCN(C2=Nc3ccccc3Oc3ccc(Cl)cc32)CC1 for me?
0.997

###

Here the recorded normalized growth is given for each entry.
# Assay notes: chemical genetic growth profiling, strain panel (AID 1159580);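 further: tested at 20 µM; growth read once vehicle control cultures reached saturation at 30 °C; 1 = growth at the plate median or of vehicle wells; lower values mean less growth of the strain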
# Condition details: S. cerevisiae deletion strains, growth OD, locus YGR252W, strain gcn5, stronger effect = lower value
Hit rate of the full screen: of about 5,500 compounds, about 2,000 (36%) were called active. Not shown: some 18% with an inconclusive outcome. This is one part of the list.

Examples with answers:
{"columns": ["Molecule", "normalized growth"],
 "data": [
  ["CN[C@@H]1[C@H](OC2[C@H](O[C@H]3[C@H](O)[C@@H](O)[C@H](N=C(N)N)[C@@H](O)[C@@H]3N=C(N)N)O[C@@H](C)[C@]2(O)C=O)O[C@@H](CO)[C@H](O)[C@H]1O (stereo partly drawn)", "1.01 (inactive)"],
  ["S=P(N1CC1)(N1CC1)N1CC1", "0.985 (inactive)"]
]}

Then this molecule:
Can you look up the measured normalized growth of CCCCC[C@H](CC(=O)NO)C(=O)N[C@H](C(=O)N1CCC[C@H]1CO)C(C)C for me?
1.02 (inactive)
